- assayText: chemical genetic growth profiling, strain panel (AID 1159580);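 further: tested at 20 µM; growth read once vehicle control cultures reached saturation at 30 °C; 1 = growth at the plate median or of vehicle wells; lower values mean less growth of the strain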
- settings: S. cerevisiae deletion strains, growth OD, locus YNL307C, strain MCK1, hits give low values
Screen size: about 5,500 compounds; about 2,000 (36%) were called active. Inconclusive results (about 18%) are left out. Some of the results follow.
measuredQuantity: normalized growth
Hey, just send me the number, nothing else.

# get_value(readout='normalized growth', item= CC1(C)Oc2ccc3ccc(=O)oc3c2CC1O (configuration not stated) )
1.02

# get_value(readout='normalized growth', item= O=C(CCCN1CCC(O)(c2ccc(Cl)cc2)CC1)c1ccc(F)cc1 )
0.815

# get_value(readout='normalized growth', item= CC(C)=CC1C(CO)C1(C)C (configuration not stated) )
1.01

# get_value(readout='normalized growth', item= CC(=O)N1CCN(c2ccc(OCC3CO[C@](Cn4ccnc4)(c4ccc(Cl)cc4Cl)O3)cc2)CC1 (some centres not stated) )
0.0791

# get_value(readout='normalized growth', item= CC(=O)O[C@@H]1c2c(ccc3ccc(=O)oc23)OC(C)(C)[C@@H]1OC(=O)CC(C)C )
1.01

# get_value(readout='normalized growth', item= Cc1ccccc1N1C(=O)c2cc(S(N)(=O)=O)c(Cl)cc2NC1C (configuration not stated) )
0.996

# get_value(readout='normalized growth', item= NCCCN )
0.985

====

- assayText: chemical genetic growth profiling, strain panel (AID 1159580);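 further: tested at 20 µM; growth read once vehicle control cultures reached saturation at 30 °C; 1 = growth at the plate median or of vehicle wells; lower values mean less growth of the strain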
- settings: S. cerevisiae deletion strains, growth OD, locus YOL012C, strain htz1
Hit rate of the full screen: of about 5,500 compounds, about 2,000 (36%) were called active. Roughly 18% stayed inconclusive and do not appear here. Rule as the data show it: active = normalized growth mostly below about 0.91 (no sharp cut-off); inconclusive = no clear call, values can overlap the other calls; inactive = mostly above about 0.92. The list shows a part of the results.
I would appreciate it if you answered using one of these outcomes: active, inactive

Which outcome was entered for the compound CC(=O)O[C@@H]1CC2C(C)(CC[C@H](O)C2(C)C)C2CC[C@]3(C)C(=CC(=O)O[C@H]3c3ccoc3)C21C (stereo partly drawn) in this test?
inactive

Which outcome was entered for the compound Oc1ccc2c3c1OC1[C@@H](O)CC[C@@]4(O)[C@@H](C2)N(CC2CCC2)CC[C@]314 (stereo partly drawn) in this test?
inactive

Which outcome was entered for the compound C[C@@H]1CC[C@@]23CCC4(C)[C@@](C=CC5[C@@]6(C)CC[C@H](O)C(C)(C)C6CC[C@]54C)(OC2=O)C3[C@H]1C (stereo partly drawn) in this test?
active

Which outcome was entered for the compound C[C@@H]1CC[C@@]23CCC4(C)[C@@](C=CC5[C@@]6(C)CCC(=O)C(C)(C)C6CC[C@]54C)(OC2=O)C3[C@H]1C (stereo partly drawn) in this test?
inactive

Which outcome was entered for the compound COc1cc(C(=O)O)cc(OC)c1OC in this test?
inactive

Which outcome was entered for the compound NCCCN in this test?
inactive

Which outcome was entered for the compound CC1(C)S[C@@H]2[C@H](NC(=O)[C@@H](N)c3ccc(O)cc3)C(=O)N2[C@H]1C(=O)O in this test?
inactive

Which outcome was entered for the compound CC(C)=CC1C(CO)C1(C)C (stereo not drawn) in this test?
inactive

====

- assayText: chemical genetic growth profiling, strain panel (AID 1159580);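 further: tested at 20 µM; growth read once vehicle control cultures reached saturation at 30 °C; 1 = growth at the plate median or of vehicle wells; lower values mean less growth of the strain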
- settings: S. cerevisiae deletion strains, growth OD, locus YDR297W, strain sur2, hits give low values
Screen size: about 5,500 compounds; about 2,000 (36%) were called active. Not shown: some 18% with an inconclusive outcome. The list shows a part of the results.
Exercise: for every item that follows, state its recorded normalized growth.
Hey, just send me the number, nothing else.

# get_value(readout='normalized growth', item= CO[C@H]1[C@@H](O)[C@@H](C)O[C@H](O[C@H]2CCC3(C)C4CCC5(C)[C@@H](C6=CC(=O)OC6)CC[C@]5(O)[C@@H]4CC[C@]3(O)C2)[C@@H]1O (stereo partly specified) )
1.04

# get_value(readout='normalized growth', item= O=C1CC2(CCCC2)CC(=O)N1CCCCN1CCN(c2ncccn2)CC1 )
1

# get_value(readout='normalized growth', item= COc1cc(-c2cc(=O)c3c(O)c(OC)c(OC)c(OC)c3o2)cc(OC)c1OC )
1.01

# get_value(readout='normalized growth', item= CC(C)(C)NCC(O)COc1cccc2c1CCCC2=O (stereo unspecified) )
0.981

# get_value(readout='normalized growth', item= CC1(C)S[C@@H]2C(N3C(=O)[C@@H](c4ccccc4)NC3(C)C)C(=O)N2[C@H]1C(=O)O (stereo partly specified) )
0.98

# get_value(readout='normalized growth', item= COC1=CC(=O)C=C(OC)C1=O )
0.978
